EXPERIMENTAL_SYSTEM: T1, Human insulin receptor (HIR), purified from transfected cells after solubilization with Triton X-100 (human, UniProt P06213 28-1382, limits assumed)
T1 construct: Detergent-solubilised receptor
ASSAY_DETAILS: competition with 125I-insulin for solubilised HIR, PEG precipitation; Kd calculated from the competition curve
pKd: −log10 of the molar value.
Form field: pKd (one value per entry).
READOUT_TYPE: pKd

{"BINDER": "GSLDESFYDWFERQLG (also called RP9 minus terminal lysines) [S386]", "OBSERVED_MEASUREMENT": 6.49}
{"BINDER": "GSLDESFYDWFERQL (Synthetic truncated RP9 monomer peptide) [S395]", "OBSERVED_MEASUREMENT": 7.04}
{"BINDER": "ESFYDWFERQ (Synthetic truncated RP9 monomer peptide) [S400]", "OBSERVED_MEASUREMENT": 6.20}
{"BINDER": "GSLDESFYDWFERQ (Synthetic truncated RP9 monomer peptide) [S394]", "OBSERVED_MEASUREMENT": 7.09}
{"BINDER": "ESFYDWFERQL (Synthetic truncated RP9 monomer peptide) [S399]", "OBSERVED_MEASUREMENT": 7.04}
